Numbers sourced from the supplement of paper PMC10981050.

Test system: OCI-AML2
EXPERIMENT: cell viability relative to vehicle control; higher = less cytotoxic;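 further: after 48 h exposure read by CellTiter-Glo luminescence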
CONDITION_CONTEXT: 10 µM; SRSF2 genotype: wt/wt
PARAMETER_MEASURED: cell viability (%)
One number for each entry, in %.

Reference set (3 entries):
COMPOUND | TARGET_UNDER_TEST | cell viability, %
Cc1c(C)c2c(c(C)c1OC(=O)CCC(=O)OCCOCCOCCO)CCC(C)(CCCC(C)CCCC(C)CCCC(C)C)O2 (configuration not stated) | OCI-AML2 | 77.4
O=[N+]([O-])c1ccc(S(=O)(=O)N2CCN(c3ccnc4cc(Cl)ccc34)CC2)c([N+](=O)[O-])c1 | OCI-AML2 | 0.54
COc1ccc(C(NC(=O)c2cnc(-c3cccnn3)[nH]c2=O)c2ccc(OC)cc2)cc1 | OCI-AML2 | 113

Parameters: items (list). Returns: cell viability for each item.
1. CN1CC[C@@H](c2c(O)cc(O)c3c(=O)cc(-c4ccccc4Cl)oc23)[C@@H]1CO
2. O=C1O[C@H]2[C@@H]3OC(=O)c4cc(O)c(O)c(O)c4-c4c(cc(O)c(O)c4O)C(=O)OC[C@H]2O[C@@H](OC(=O)c2cc(O)c(O)c(O)c2)[C@@H]3OC(=O)c2cc(O)c(O)c3c2[C@@H]2C1=CC(=O)[C@](O)(O3)C2(O)O
3. O=C(O)c1ccccc1C(=O)Nc1ccc(-c2ccccc2)cc1
4. N[C@H]1CC[C@H](N[C@@H]2C[C@H]2c2ccccc2)CC1

Output line:
[13.3, 92.1, 97.9, 84.6]

Count: 7. Required value per item: cell viability.
1. COC(=O)c1c2c(c3ccccc3c1O)OC(C)(C)C=C2
2. N[C@@H](CC(=O)N1CCn2c(nnc2C(F)(F)F)C1)Cc1cc(F)c(F)cc1F [Sitagliptin phosphate monohydrate]
3. CCn1c2ccccc2c2cc(Nc3ccnc(NCCCN4CCOCC4)n3)ccc21
4. CCOC(=O)c1cc(O)c(O)c(O)c1 [Ethyl gallate]
5. CC(C)N1CCN(Cc2cnc(-c3cc(-c4cccc5[nH]ccc45)cc4[nH]ncc34)o2)CC1
6. Cc1ccnc2c1NC(=O)c1cccnc1N2C1CC1
7. O=C1C(=Cc2ccncc2)CCCC1=Cc1ccncc1

Output line:
[41.4, 117, 1.05, 86.8, 39.8, 104, 0.12]

---

Tested on: OCI-AML2
EXPERIMENT: cell viability relative to vehicle control; higher = less cytotoxic
CONDITION_CONTEXT: 10 µM; SRSF2 genotype: P95H/wt
Where a name gives a salt, the structure may show the parent alone.
PARAMETER_MEASURED: cell viability (%)
Give bare numbers, in %.

COMPOUND | cell viability / %
CCOc1cc2ncc(C#N)c(Nc3ccc(F)c(Cl)c3)c2cc1NC(=O)/C=C/CN(C)C [Pelitinib (EKB-569)] | 0.33
CCOc1ccccc1N=Nc1c(C)[nH]n(-c2nc(-c3ccccc3)cs2)c1=O | 108
COC(=O)N[C@H](C(=O)N[C@@H](Cc1ccccc1)[C@@H](O)CN(Cc1ccc(-c2ccccn2)cc1)NC(=O)[C@@H](NC(=O)OC)C(C)(C)C)C(C)(C)C [Atazanavir sulfate] | 94.5
O=C1c2cccc(O)c2C(=O)c2c(O)cc(CO)cc21 [Aloe-emodin] | 82.5
Nc1nc(F)nc2c1ncn2[C@@H]1O[C@H](COP(=O)(O)O)[C@@H](O)[C@@H]1O [Fludarabine Phosphate (Fludara)] | 6.47

Input line: Can you look up the measured cell viability of CC1(C)C(O[C@@H]2OC[C@@H](O)[C@H](O)[C@H]2O)CC[C@]23CC24CC[C@]2(C)[C@@H]([C@@]5(C)CC[C@@H](C(C)(C)O)O5)[C@H](O)C[C@@]2(C)C4C[C@@H](O[C@@H]2O[C@H](CO)[C@@H](O)[C@H](O)[C@H]2O)C13 (stereo partly specified) [Astragaloside IV] for me?
Output line: 116

---

System: OCI-AML2
EXPERIMENT: cell viability relative to vehicle control; higher = less cytotoxic
CONDITION_CONTEXT: 10 µM; SRSF2 genotype: P95H/wt
Where a name gives a salt, the structure may show the parent alone.
PARAMETER_MEASURED: cell viability (%)
Numbers only, in %.

Examples with their reported cell viability follow.
COMPOUND | cell viability, %
C1N2CN3CN1CN(C2)C3 | 99
CC(=O)O[C@@]12CO[C@@H]1C[C@H](O)[C@@]1(C)C(=O)[C@H](O)C3=C(C)[C@@H](OC(=O)[C@H](O)[C@@H](NC(=O)OC(C)(C)C)c4ccccc4)C[C@@](O)([C@@H](OC(=O)c4ccccc4)[C@H]21)C3(C)C [Docetaxel Trihydrate] | 6.94
CN1CCN(CCOc2cc(OC3CCOCC3)c3c(Nc4c(Cl)ccc5c4OCO5)ncnc3c2)CC1 | 73.4
COc1cc(C=CC=O)ccc1O | 95.6
CN(C)C(=O)CCSC(SCCC(=O)O)c1cccc(/C=C/c2ccc3ccc(Cl)cc3n2)c1 (stereo not given) | 101

I would be grateful if you could provide cell viability for each of the following entries.
1. C[C@H]1[C@H](OC(=O)CCC(=O)O)O[C@@H]2O[C@@]3(C)CC[C@H]4[C@H](C)CC[C@@H]1[C@@]24OO3 [Artesunate]
2. CCC[C@H](N[C@H]1CCc2cc(F)cc(F)c2C1)C(=O)Nc1cn(C(C)(C)CNCC(C)(C)C)cn1
3. Nc1nc2c(ncn2COC(CO)CO)c(=O)[nH]1

Output line:
2.96
73.3
91.1

Count: 3. Required value per item: cell viability.
1. COc1ccccc1OCC(O)CN1CCN(CC(=O)Nc2c(C)cccc2C)CC1 (stereo not given) [Ranolazine dihydrochloride]
2. C=C(C)[C@@H]1CC[C@]2(C(=O)O)CC[C@]3(C)[C@H](CC[C@@H]4[C@@]5(C)CC[C@H](OC(=O)CC(C)(C)C(=O)O)C(C)(C)[C@@H]5CC[C@]43C)[C@@H]12
3. Nc1c(Br)cc(Br)cc1CN[C@H]1CC[C@H](O)CC1 [Ambroxol HCl]

Output line:
1: 102; 2: 97; 3: 104

The following compounds each have a reported value; give each one's cell viability.
1. O=C(O[C@@H]1O[C@@H]2COC(=O)c3cc(O)c(O)c(O)c3-c3c(cc(O)c(O)c3O)C(=O)O[C@H]([C@H]1O)[C@@H]2O)c1cc(O)c(O)c(O)c1
2. CCCCC1C(=O)N(c2ccccc2)N(c2ccccc2)C1=O
3. CN(C)N(C)C(=O)[C@@]1(Cc2ccccc2)CCCN(C(=O)[C@@H](Cc2c[nH]c3ccccc23)NC(=O)C(C)(C)N)C1

Output line:
103
106
69.2

Input line: # value lookup — system OCI-AML2, readout cell viability, item O=C(c1cncc(Br)c1)N1CCC(N2CCCC2)CC1
Output line: 104

---

Can you tell me cell viability for the items I'm about to list?
Test system: MOLM14
EXPERIMENT: cell viability relative to vehicle control; higher = less cytotoxic
CONDITION_CONTEXT: 10 µM; SRSF2 genotype: SRSF2 wt/wt
Answers are plain numbers, in %.

These recorded examples may help you get a feel for the data.
MOLECULE | cell viability, %
COc1cc(C=O)c([N+](=O)[O-])cc1OC | 109
CC[C@H](Nc1ncnc2[nH]cnc12)c1nc2cccc(F)c2c(=O)n1-c1ccccc1 | 54.8
NC1(Cc2ccc(Cl)cc2)CCN(c2ncnc3[nH]ccc23)CC1 | 17

Batch request: cell viability per item, same order as input.
1. O=c1cc(-c2ccccc2)oc2cc(O[C@@H]3O[C@H](CO[C@@H]4O[C@H](CO)[C@@H](O)[C@H](O)[C@H]4O)[C@@H](O)[C@H](O)[C@H]3O)c(O)c(O)c12
2. O=C(/C=C/c1ccc(O)c2c1[C@H](C(=O)O[C@H](Cc1ccc(O)c(O)c1)C(=O)O)[C@@H](c1ccc(O)c(O)c1)O2)O[C@H](Cc1ccc(O)c(O)c1)C(=O)O

Output line:
1. 107
2. 103

---

Please go through the items and note down their cell viability.
Test system: MARIMO
EXPERIMENT: cell viability relative to vehicle control; higher = less cytotoxic
CONDITION_CONTEXT: 10 µM; SRSF2 genotype: SRSF2 wt/wt
Structures can show the parent of a compound that is named as a salt.
Answers are plain numbers, in %.

// known answers, use as guide
COMPOUND | PARAMETER_MEASURED | RECORDED_RESULT
CC(C)(C)c1cc(O)c(C(C)(C)C)cc1O | cell viability | 92.5
CC(=O)OCC=Cc1ccccc1 [Cinnamyl acetate] | cell viability | 95.9
O=C1C[C@@H](c2ccc(O)c(O)c2)Oc2cc(O)cc(O)c21 | cell viability | 96.1
CCOc1ccc(Cc2cc([C@@H]3O[C@H](SC)[C@@H](O)[C@H](O)[C@H]3O)ccc2Cl)cc1 | cell viability | 97.3
Cc1nc(Nc2cnn(C3CCNCC3)c2)nc2c1N(C)C(=O)c1cc3ccccc3cc1N2C | cell viability | 63.7

# per-item lookup of cell viability; items listed below
1. C=C[C@]1(C)C[C@@H](OC(=O)CSC(C)(C)CNC(=O)[C@H](N)C(C)C)[C@]2(C)[C@H](C)CC[C@]3(CCC(=O)[C@H]32)[C@@H](C)[C@@H]1O [Valnemulin HCl]
2. COc1cc(C(C)=O)ccc1OCCCN1CCC(c2noc3cc(F)ccc23)CC1
3. COC(=O)[C@H](O)[C@@H](NC(=O)c1ccccc1)c1ccccc1

Output line:
1: 74.9; 2: 90.2; 3: 103
